I'd appreciate it if you could supply inhibition at 20 µM values for the items below.
# tgt: KRas G12D/Q61H double mutant (Homo sapiens (Human), UniProt P01116, G12D/Q61H)
# Sequence (P01116-2 other isoform, or with tags, fused parts or gaps G12D/Q61H): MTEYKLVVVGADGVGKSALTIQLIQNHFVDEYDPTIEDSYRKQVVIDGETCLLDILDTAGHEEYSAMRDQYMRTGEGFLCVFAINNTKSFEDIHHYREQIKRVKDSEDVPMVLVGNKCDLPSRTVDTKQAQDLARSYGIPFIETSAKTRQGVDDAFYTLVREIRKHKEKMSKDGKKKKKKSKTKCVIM
# procedure.text: Ras GTP binding domain inhibition assay (labeled GTP)
# particulars: at 20 μM; read-out: KRas G12D Q61H % Inh.

>>> result("O=C(c1csc2c(O)nc(-c3ccccn3)nc12)N1CCN(c2ccc(O)c(Cl)c2)CC1 [drawing 3692]")
"51 to 75%"

For every item in the list below, what is its measured inhibition at 20 µM?
1. O=c1[nH]c(-c2ccccn2)nc2c([C@@H]3O[C@H](CO)[C@@H](O)[C@H]3O)csc12 [drawing 3845]
2. COC(=O)c1c(C)sc2c(O)nc(-c3ccccn3)nc12 [drawing 3792]
3. COc1cc(N2CCN(C(=O)c3csc4c(O)nc(-c5ccccn5)nc34)CC2)cc(OC)c1OC [drawing 3647]
4. Oc1nc(-c2ccccn2)nc2cc(-c3ccncc3)sc12 [drawing 3879]

25 to 50%
51 to 75%
0%
51 to 75%

----------
# tgt: KRas G12C mutant (Homo sapiens (Human), UniProt P01116, G12C)
# Sequence (P01116-2 other isoform, or with tags, fused parts or gaps G12C): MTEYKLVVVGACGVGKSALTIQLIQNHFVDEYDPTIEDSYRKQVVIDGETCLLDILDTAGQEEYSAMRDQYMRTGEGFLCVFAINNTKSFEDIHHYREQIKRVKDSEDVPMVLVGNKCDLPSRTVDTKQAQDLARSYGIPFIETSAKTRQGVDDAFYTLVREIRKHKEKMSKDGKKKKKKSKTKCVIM
# procedure.text: Ras GTP binding domain inhibition assay (labeled GTP)
# particulars: 20 μM compound; read-out: % Inhibition at 20 μM KRas G12C
quantity.kind: inhibition at 20 µM

The following compounds have reported results that may help.
>>> result("O=C(c1ccc(=O)[nH]n1)N1CCCc2c(O)nc(-c3ccccn3)nc21 [drawing 2646]")
"25 to 50%"
>>> result("Cc1cnc(-c2ccccn2)nc1NC(=O)Cc1ccc2cnccc2c1 [drawing 2856]")
"25 to 50%"
>>> result("Cc1cnc(-c2ccccn2)nc1NC(=O)COCc1ccncc1")
"51 to 75%"
>>> result("NC(=O)Cn1cnc2nc(-c3ccccn3)nc(N3CCOCC3)c21 [drawing 2825]")
"25 to 50%"
>>> result("Oc1nc(-c2ccccn2)nc2c(-c3ccc(F)cc3F)csc12 [drawing 2871]")
"25 to 50%"
>>> result("O=C(COCc1cccnc1)Nc1nc(-c2ccccn2)nc2sccc12 [drawing 2829]")
"51 to 75%"
>>> result("Nc1nc(-c2ccccn2)nc2c(-c3ccccc3)csc12 [drawing 2859]")
"1 to 25%"
>>> result("Oc1nc(-c2ccccn2)nc2c(-c3ccsc3)csc12 [drawing 2875]")
"51 to 75%"
>>> result("O=S1(=O)CCN(Cc2cccc(-c3csc4c(O)nc(-c5ccccn5)nc34)c2)CC1 [drawing 2864]")
"25 to 50%"
>>> result("Oc1nc(-c2ccccn2)nc2c(-c3ccc(OC(F)F)cc3F)csc12 [drawing 2876]")
"25 to 50%"

For every item in the list below, what is its measured inhibition at 20 µM?
1. O=C(O)c1cc2nc(-c3ccccn3)nc(O)c2s1 [drawing 2850]
2. O=C(c1csc2c(O)nc(-c3ccccn3)nc12)N1CCNC(c2cn[nH]c2)C1 (stereo not shown) [drawing 2858]
3. CC1(N)CCN(C(=O)c2csc3c(O)nc(-c4ccccn4)nc23)CC1 [drawing 2684]
4. Oc1nc(-c2ccccn2)nc2c(-c3ccccc3F)csc12 [drawing 2868]

1. 51 to 75%
2. 25 to 50%
3. 76 to 100%
4. 25 to 50%

For every item in the list below, what is its measured inhibition at 20 µM?
1. Cc1cnccc1-c1csc2c(O)nc(-c3ccccn3)nc12 [drawing 2888]
2. Oc1nc(-c2ccccn2)nc2sc3c(c12)CCCNC3 [drawing 2852]
3. CC1CN(c2ccccc2)CCN1C(=O)c1csc2c(O)nc(-c3ccccn3)nc12 (stereo not shown) [drawing 2761]
4. COCCC(C)Nc1nc(-c2ccccn2)nc2sccc12 (stereo not shown) [drawing 2709]
5. Oc1nc(-c2ccccn2)nc2scc(Br)c12 [drawing 2703]

25 to 50%
51 to 75%
51 to 75%
25 to 50%
25 to 50%
